Target: CDK4/cyclinD1 (Homo sapiens, UniProt P11802)
Experiment: CDKi biochemical assay (TR-FRET, phosphorylation of S780 on RB1 peptide)
Conditions: CDK4/cyclinD1 20 pM, 1 mM ATP, 60 min at 25° C.
pIC50: −log10 of the molar value.
Catalogue of pIC50 values
ENDPOINT_NAME: pIC50

{"MOLECULE": "O=C1N([C@@H]2CCC[C@@H](O)C2)c2nc(Nc3c[nH]nc3-c3cnn4cccnc34)ncc2C12CC2", "RELATION": "≤", "NUMERIC_READOUT": 5.00}
{"MOLECULE": "O=C1N([C@@H]2CCC[C@@H](O)C2)c2nc(Nc3c[nH]nc3C3CC3(F)F)ncc2C12CC2 (single isomer, unassigned)", "RELATION": "=", "NUMERIC_READOUT": 5.56}
{"MOLECULE": "O=C1N([C@@H]2CCC[C@@H](O)C2)c2nc(Nc3c[nH]nc3Cl)ncc2C12CC2", "RELATION": "=", "NUMERIC_READOUT": 5.28}
{"MOLECULE": "O=C1N([C@@H]2CCC[C@@H](O)C2)c2nc(Nc3c[nH]nc3OCC(F)(F)F)ncc2C12CC2", "RELATION": "=", "NUMERIC_READOUT": 5.50}
{"MOLECULE": "O=C1N([C@@H]2CCCC[C@@H](O)C2)c2nc(Nc3c[nH]nc3Cl)ncc2C12CC2", "RELATION": "=", "NUMERIC_READOUT": 5.12}
{"MOLECULE": "COCCn1cc(Nc2ncc3c(n2)N([C@@H]2CCC[C@@H](O)C2)C(=O)C32CC2)cn1", "RELATION": "=", "NUMERIC_READOUT": 5.91}
{"MOLECULE": "Cc1n[nH]cc1Nc1ncc2c(n1)N([C@@H]1CCCC[C@@H](O)C1)C(=O)C21CC1", "RELATION": "≤", "NUMERIC_READOUT": 5.00}

Data origin, for the record: patent US20240360137A1
